Details: in methanol, 283.15 K
recorded.metric: solubility (mole fraction)
Answer as a number with no unit attached.

Need solubility (mole fraction), item `CCOc1ncc(C)c2c1[C@H](c1ccc(C#N)cc1OC)C(C(N)=O)=C(C)N2`
0.0045

====

Conditions: in methanol, 288.15 K
recorded.metric: solubility (mole fraction)

State the recorded solubility (mole fraction) for this entry: `CCOc1ncc(C)c2c1[C@H](c1ccc(C#N)cc1OC)C(C(N)=O)=C(C)N2`
0.00484

====

Conditions: in methyl acetate, 298.15 K
recorded.metric: solubility (mole fraction)
# respond with the number and nothing more

Given the compound `CCOc1ncc(C)c2c1[C@H](c1ccc(C#N)cc1OC)C(C(N)=O)=C(C)N2` , what is its reported solubility (mole fraction)?
0.00197
